tested on: SF-295 CNS; experiment: NCI-60 one-dose screen, 48 h (100 = growth as untreated, 0 = no growth, -100 = all killed); conditions: 10 µM unless noted
Compounds without any hit were thinned out: in the full panel of roughly 83,000, 20% have a hit.
Listed here are compounds together with their documented growth.
MEASURED_ATTRIBUTE: growth (%)

>>> df
                                   compound  measured_attribute  result_unit  reported_measurement
0  O=[N+]([O-])c1cccc(-c2nc3cc4nc5ccccc5[nH]c4cc3n2)c1              growth            %                   100
1  CC1CN(S(=O)(=O)c2oc(-c3ccc(Cl)cc3)nc2C#N)CC(C)O1 (stereo not given)              growth            %                  97.9
2  O=C(Nc1ccccc1)Nc1ncnc2c1ncn2-c1ccc(Cl)cc1              growth            %                  76.4
3  CNC(=O)c1ccccc1Oc1nc(Nc2cc(OC)c(OC)c(OC)c2)ncc1Br              growth            %                    53
4  CCC(C)(C)C(=O)O[C@H]1C[C@@H](C)C=C2C=C[C@H](C)[C@H](CC[C@@H]3CC(SCCN)CC(=O)O3)[C@H]21 (stereo not given in full)              growth            %                   106
